Answer each item with its documented Bond results.
- study target: T1, Class I HLA molecule A*0101 in recombinant form
- T1 MHC heavy: not shown
- measurement description: iTopia ELISA-like peptide-HLA binding
Answers are plain numbers, in %.

// known answers, use as guide
YLAWYQQKP [VK3-20 peptide No 33 YLAWYQQKP]: 0
TQSPGTLSF [VK3-20 peptide No 5 TQSPGTLSF]: 1

Please go through the list and note Bond results for each binder.
1. SPRTFGQGT [VK3-20 peptide No 95 SPRTFGQGT]
2. QQYGSSPRT [VK3-20 peptide No 90 QQYGSSPRT]
3. KPGQAPRLL [VK3-20 peptide No 40 KPGQAPRLL]
4. LLIYGASSR [VK3-20 peptide No 47 LLIYGASSR]
5. VYYCQQYGS [VK3-20 peptide No 86 VYYCQQYGS]
6. QYGSSPRTF [VK3-20 peptide No 91 QYGSSPRTF]

[1, 1, 0, 0, 1, 1]

Data origin, for the record: patent US8512703B2
